Here we list molecules with their recorded pKd when tested on AfUGM (Aspergillus fumigatus).
pKd: −log10 of the molar value.
metric: pKd

[
  {
    "molecule": "NC(=O)C1=CN([C@@H]2O[C@H](COP(=O)(O)OP(=O)(O)OC[C@H]3O[C@@H](n4cnc5c(N)ncnc54)[C@H](O)[C@@H]3O)[C@@H](O)[C@H]2O)C=CC1 [NADH]",
    "assay-system": "AfUGM (Aspergillus fumigatus)",
    "assay-value": 3.59
  },
  {
    "molecule": "NC(=O)C1=CN([C@@H]2O[C@H](COP(=O)(O)OP(=O)(O)OC[C@H]3O[C@@H](n4cnc5c(N)ncnc54)[C@H](OP(=O)(O)O)[C@@H]3O)[C@@H](O)[C@H]2O)C=CC1 [NADPH]",
    "assay-system": "AfUGM (Aspergillus fumigatus)",
    "assay-value": 4.60
  }
]

----------
Target: AfUGM R91A (Aspergillus fumigatus, UniProt Q4W1X2, R91A)
Format: biochemical
Details: R91A mutant

[
  {
    "test-smiles": "NC(=O)C1=CN([C@@H]2O[C@H](COP(=O)(O)OP(=O)(O)OC[C@H]3O[C@@H](n4cnc5c(N)ncnc54)[C@H](OP(=O)(O)O)[C@@H]3O)[C@@H](O)[C@H]2O)C=CC1",
    "Kd [µM]": 330
  }
]

----------
Molecular target: AfUGM S93A (Aspergillus fumigatus, UniProt Q4W1X2, S93A)
Details: S93A mutant
metric: Kd (µM)

[
  {
    "test-smiles": "NC(=O)C1=CN([C@@H]2O[C@H](COP(=O)(O)OP(=O)(O)OC[C@H]3O[C@@H](n4cnc5c(N)ncnc54)[C@H](OP(=O)(O)O)[C@@H]3O)[C@@H](O)[C@H]2O)C=CC1",
    "assay-value": 21
  }
]
